Values from patent US20210196796A1

targetUnderTest: T1, orthogonal hCD122 receptor (hoRb), hCD122 with H133D and Y134F (human, UniProt P14784 27-550); further: reference of the scale not given here
T1 sequence: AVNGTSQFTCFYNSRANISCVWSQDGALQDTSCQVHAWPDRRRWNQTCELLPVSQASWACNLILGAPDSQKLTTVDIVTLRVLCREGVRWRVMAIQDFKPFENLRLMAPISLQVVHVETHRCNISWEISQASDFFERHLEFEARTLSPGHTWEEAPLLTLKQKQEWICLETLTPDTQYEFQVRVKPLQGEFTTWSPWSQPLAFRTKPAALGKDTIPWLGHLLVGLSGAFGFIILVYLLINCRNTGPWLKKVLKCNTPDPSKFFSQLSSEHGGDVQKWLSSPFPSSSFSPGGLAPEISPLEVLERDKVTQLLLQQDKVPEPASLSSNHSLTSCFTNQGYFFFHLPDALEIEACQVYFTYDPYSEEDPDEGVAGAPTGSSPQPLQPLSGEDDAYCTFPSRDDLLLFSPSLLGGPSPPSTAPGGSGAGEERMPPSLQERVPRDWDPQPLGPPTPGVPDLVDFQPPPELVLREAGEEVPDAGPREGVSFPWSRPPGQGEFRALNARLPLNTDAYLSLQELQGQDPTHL
experimentNotes: cell-based or functional assay
experimentalReadout: Relative Proliferation Fold Change 3F8 1:10 (fold)

Worked set:
# binder, measurementUnit, number
records = [
    ("SQVLKV (ligand) APTSSSTKKTQLQLSQLLVLLKVILNGINNYKNPKLTRMLTFKFYMPKKATELKHLQCLEEELKPLEEVLNLAQSKNFHLRPRDLISNINVIVLELKGSETTFMCEYADETATIVEFLNRWITFCQSIISTLT", "fold", 29.1),
    ("SQVLAA (ligand) APTSSSTKKTQLQLSQLLVLLAAILNGINNYKNPKLTRMLTFKFYMPKKATELKHLQCLEEELKPLEEVLNLAQSKNFHLRPRDLISNINVIVLELKGSETTFMCEYADETATIVEFLNRWITFCQSIISTLT", "fold", 10.1),
]

I = R81D, SQVLKA (ligand) APTSSSTKKTQLQLSQLLVLLKAILNGINNYKNPKLTRMLTFKFYMPKKATELKHLQCLEEELKPLEEVLNLAQSKNFHLDPRDLISNINVIVLELKGSETTFMCEYADETATIVEFLNRWITFCQSIISTLT
II = SQVLKQ (ligand) APTSSSTKKTQLQLSQLLVLLKQILNGINNYKNPKLTRMLTFKFYMPKKATELKHLQCLEEELKPLEEVLNLAQSKNFHLRPRDLISNINVIVLELKGSETTFMCEYADETATIVEFLNRWITFCQSIISTLT
Query string: Between I and II , whose measured Relative Proliferation Fold Change 3F8 1:10 reads higher? Selection: enter the item's label.
Result string: II
(II: 20 fold, I: 13.6 fold)
